Assay: in vitro
Type: cell-based
Settings: human; replicon cells, 3 days culture with compound, Cell Counting Kit 8, absorbance 450 nm; read-out: Cytotoxicity CC50
Please respond with reported CC50 for every item in the list.

CCCCCCCC(=O)CCCCCC/C=C/[C@H](C(=O)N[C@@H](Cc1ccc(-c2ccc(N(C)C)cc2)cc1)C(=O)O)[C@@](O)(CC(=O)O)C(=O)O | > 1000 nM

List CC50 for every entry below, keeping the order given.
1. CCCCCCCC(=O)CCCCCC/C=C/[C@H](C(=O)NC(Cc1ccc([N+](=O)[O-])cc1)C(=O)O)[C@@](O)(CC(=O)O)C(=O)O (stereo partly drawn)
2. CC(C)CCCCC(=O)CCCCCC/C=C/[C@H](C(=O)N[C@@H](Cc1ccc(OCCC(C)C)cc1)C(=O)O)[C@](O)(CC(=O)O)C(=O)O

Outgoing:
1. > 1000 nM
2. > 1000 nM
